# Target entity: UniProtKB Q8TCC7
# Sequence (Q8TCC7 1-542): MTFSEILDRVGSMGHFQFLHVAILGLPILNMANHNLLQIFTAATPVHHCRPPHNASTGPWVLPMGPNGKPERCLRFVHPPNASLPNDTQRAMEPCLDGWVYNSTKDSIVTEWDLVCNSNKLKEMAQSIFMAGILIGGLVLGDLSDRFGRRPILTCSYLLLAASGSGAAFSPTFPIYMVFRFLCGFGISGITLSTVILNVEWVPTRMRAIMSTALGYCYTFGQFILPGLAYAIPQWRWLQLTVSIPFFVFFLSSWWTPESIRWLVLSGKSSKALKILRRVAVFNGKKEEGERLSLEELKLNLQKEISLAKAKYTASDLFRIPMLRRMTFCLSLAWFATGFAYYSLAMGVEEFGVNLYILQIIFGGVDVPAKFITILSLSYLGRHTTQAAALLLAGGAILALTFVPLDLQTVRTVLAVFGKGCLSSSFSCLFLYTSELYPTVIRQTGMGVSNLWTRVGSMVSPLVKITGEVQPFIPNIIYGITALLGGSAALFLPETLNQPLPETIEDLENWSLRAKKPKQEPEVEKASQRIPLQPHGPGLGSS
# Assay overview: Uptake of AAI by hOAT3-transfected HEK293 cells with or without JBP485
# Study conditions: hOAT3-transfected HEK293 cells, substrate AAI; read-out: IC50 of inhibition of AAI uptake, OAT3
Measured attribute: IC50 (µM)
Numbers only, in µM.

input: What value of IC50 has been recorded for this entry: O=C1N[C@@H](CO)C(=O)N2C[C@H](O)C[C@@H]12 (relative stereo) [JBP485, cyclo-trans-4-L-hydroxyprolyl-L-serine]
output: 91

* * *

# Target entity: hOAT1 (Homo sapiens)
# Sequence (Q4U2R8 1-563): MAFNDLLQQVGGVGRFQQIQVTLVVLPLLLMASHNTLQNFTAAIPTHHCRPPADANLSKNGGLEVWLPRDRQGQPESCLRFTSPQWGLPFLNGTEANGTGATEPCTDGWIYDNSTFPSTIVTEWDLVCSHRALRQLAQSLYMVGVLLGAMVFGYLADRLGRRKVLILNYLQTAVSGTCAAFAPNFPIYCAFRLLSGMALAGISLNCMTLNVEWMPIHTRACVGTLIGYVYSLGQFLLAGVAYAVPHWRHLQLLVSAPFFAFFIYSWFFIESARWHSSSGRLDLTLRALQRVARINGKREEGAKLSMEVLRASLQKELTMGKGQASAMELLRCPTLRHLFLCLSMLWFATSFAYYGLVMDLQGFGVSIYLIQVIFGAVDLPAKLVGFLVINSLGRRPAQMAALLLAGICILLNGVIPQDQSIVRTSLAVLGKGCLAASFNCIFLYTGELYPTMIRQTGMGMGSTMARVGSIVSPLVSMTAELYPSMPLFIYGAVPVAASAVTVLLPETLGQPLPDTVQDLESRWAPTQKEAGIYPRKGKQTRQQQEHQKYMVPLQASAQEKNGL
# Assay overview: Uptake of AAI by hOAT1-transfected HEK293 cells with or without JBP485
# Study conditions: hOAT1-transfected HEK293 cells, substrate AAI; read-out: IC50 of inhibition of AAI uptake, OAT1
# Method: Uptake experiments with hOAT1/3-HEK293 cells were performed as previously described ([Zhu et al., 2020]). […] The cells were washed three times with 1 mL of ice-cold Hanks’ balanced salt solution, lysed with 0.3 mL of 0.1% (v/v) Triton X-100, and then transferred to a polythene tube for quantification by LC-MS/MS. The protein level was measured using the BCA method (Solarbio, Beijing, China) with bovine serum albumin serving as the standard. […]
Measured attribute: IC50 (µM)
One number for each entry, in µM.

input: Requested field: IC50. Item: O=C1N[C@@H](CO)C(=O)N2C[C@H](O)C[C@@H]12 (relative stereo) [JBP485, cyclo-trans-4-L-hydroxyprolyl-L-serine]
output: 89.8
